Values were extracted from PubChem BioAssay AID1963831.

# maps each entry to its viability, T/C
System: 889142-216-R-J1-PDC complex spheroid viability;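 further: spheroids exposed to compounds for seven days; 100% = DMSO vehicle control viability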
PROTOCOL DESCRIPTION: Anticancer human tumor 889142-216-R-J1-PDC patient-derived bladder carcinoma cell line growth inhibition [POLQ]
CONDITION INFO: second compound 0.1 µM; first compound 0.316 µM; stronger effect = lower value

MOLECULE | ASSAY TARGET | viability, T/C / %
COc1ccc([C@@H](O)c2cc(-c3ncnc4cc(N5CCOCC5)ccc34)c(F)cc2Cl)nn1 + COC1C(OC(N)=O)C(O)C(Oc2ccc3c(O)c(NC(=O)c4ccc(O)c(CC=C(C)C)c4)c(=O)oc3c2C)OC1(C)C | 889142-216-R-J1-PDC complex spheroid viability | 76.2
CCCS(=O)(=O)Nc1ccc(F)c(C(=O)c2c[nH]c3ncc(-c4ccc(Cl)cc4)cc23)c1F + Nc1ccc(C#CCN(C(=O)Cc2ncc(C(F)(F)F)cc2C(F)(F)F)c2ccc(F)cc2)nn1 | 889142-216-R-J1-PDC complex spheroid viability | 92.8
CC1COCCN1c1cc(-c2ccnn2C)c2ccnc(-c3ccn[nH]3)c2n1 (stereo not drawn) + Nc1ccc(C#CCN(C(=O)Cc2ncc(C(F)(F)F)cc2C(F)(F)F)c2ccc(F)cc2)nn1 | 889142-216-R-J1-PDC complex spheroid viability | 48.6
